Please provide measured MIC for the entries that follow.
System: E. faecalis GC 2242
Assay: MIC, broth microdilution
Conditions: Enterococcus faecalis, GC2242, read-out: MINIMAL INHIBITORY CONCENTRATION MIC, Water
Supply the numeric figure in µg/mL, leaving out any unit text.

IN: Give reported MIC value for Cc1cc(C)cc(C(=O)OCOC(=O)N(CC(=O)Nc2cc(N(C)C)c3c(c2O)C(=O)C2=C(O)[C@]4(O)C(=O)C(C(N)=O)=C(O)[C@@H](N(C)C)[C@@H]4C[C@@H]2C3)C(C)(C)C)c1 [Example 51]
OUT: 8

IN: Give the measured MIC for CC(C)CC(=O)OCOC(=O)N(CC(=O)Nc1cc(N(C)C)c2c(c1O)C(=O)C1=C(O)[C@]3(O)C(=O)C(C(N)=O)=C(O)[C@@H](N(C)C)[C@@H]3C[C@@H]1C2)C(C)(C)C [Example 53]
OUT: 2

IN: Tell us which MIC value is on record for CN(C)c1cc(NC(=O)CN(C(=O)OCOC(=O)C2CCCCC2)C(C)(C)C)c(O)c2c1C[C@H]1C[C@H]3[C@H](N(C)C)C(O)=C(C(N)=O)C(=O)[C@@]3(O)C(O)=C1C2=O [Example 50]
OUT: 2

IN: Return reported MIC. Input compound: CN(C)c1cc(NC(=O)CN(C(=O)OCOC(=O)c2ccc(F)cc2)C(C)(C)C)c(O)c2c1C[C@H]1C[C@H]3[C@H](N(C)C)C(O)=C(C(N)=O)C(=O)[C@@]3(O)C(O)=C1C2=O [Example 52]
OUT: 4

The measured values listed here are drawn from patent US20070049564A1.
